- Tested On: T1, BSA-conjugated Aβ heptapeptide LVFFAEC (reading uncertain; also: BSA conjugate);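 also: ELISA of antibody at 10 or 2 µg/ml binding plate-coated BSA–peptide conjugates, detected with HRP anti-human Ig and TMB colour, mock-treated BSA without peptide as negative control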
- T1 construct: also called Peptide 17-22
- T1 peptide: LVFFAEC([NSMP-BSA])
- Procedure Details: ELISA
Groups on a side chain read outwards from the residue. No end group written: not given here. NSMP = not defined here
Quick reference for Peptide-ratio 17-22/2-7 among some binders
// no unit, no text: just the number

{"columns": ["Binder", "Peptide-ratio 17-22/2-7"],
 "data": [
  ["MS-Roche #7.9.H4 Fab (Fab, V domains shown, assembled) VH: QVQLVESGGGLVQPGGSLRLSCAASGFTFSSYAMSWVRQAPGKGLEWVSAINAVGMKKFYADSVKGRFTISRDNSKNTLYLQMNSLRAEDTAVYYCARGKGNTHKPYGYVRYFDVWGQGTLVTVSS VL: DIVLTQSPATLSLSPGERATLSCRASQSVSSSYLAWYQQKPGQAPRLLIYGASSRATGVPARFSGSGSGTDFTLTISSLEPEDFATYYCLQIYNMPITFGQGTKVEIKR", 0.32],
  ["MS-Roche #7.2.H2 Fab (Fab, V domains shown) VH: QVQLVESGGGLVQPGGSLRLSCAASGFTFSSYAMSWVRQAPGKGLEWVSAINGTGMKKYYADSVKGRFTISRDNSKNTLYLQMNSLRAEDTAVYYCARGKGNTHKPYGYVRYFDVWGQGTLVTVSS VL: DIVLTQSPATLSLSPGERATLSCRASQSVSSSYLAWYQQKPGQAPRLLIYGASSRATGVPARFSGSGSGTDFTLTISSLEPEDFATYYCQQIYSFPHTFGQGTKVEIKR", 0.63],
  ["MS-Roche #7.12.L1 Fab (Fab, V domains shown) VH: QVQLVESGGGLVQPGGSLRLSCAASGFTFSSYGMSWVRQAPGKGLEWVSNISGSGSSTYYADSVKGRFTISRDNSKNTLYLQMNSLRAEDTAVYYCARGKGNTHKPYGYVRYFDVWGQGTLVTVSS VL: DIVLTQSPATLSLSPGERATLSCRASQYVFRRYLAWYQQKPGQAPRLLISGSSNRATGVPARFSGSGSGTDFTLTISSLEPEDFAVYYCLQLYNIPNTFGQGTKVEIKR", 0.6],
  ["MS-Roche #7.12 Fab (Fab, V domains shown) VH: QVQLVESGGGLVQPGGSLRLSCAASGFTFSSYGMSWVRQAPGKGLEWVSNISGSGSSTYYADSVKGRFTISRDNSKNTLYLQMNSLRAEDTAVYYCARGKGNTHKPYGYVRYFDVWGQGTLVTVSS VL: DIVLTQSPATLSLSPGERATLSCRASQYVSSPYLAWYQQKPGQAPRLLISGSSNRATGVPARFSGSGSGTDFTLTISSLEPEDFAVYYCLQLYNIPNTFGQGTKVEIKR", 0.16]
]}

What value of Peptide-ratio 17-22/2-7 has been reported for the following binder? MS-Roche #7.2.H3 Fab (Fab, V domains shown) VH: QVQLVESGGGLVQPGGSLRLSCAASGFTFSSYAMSWVRQAPGKGLEWVSAINANGYKTYYADSVKGRFTISRDNSKNTLYLQMNSLRAEDTAVYYCARGKGNTHKPYGYVRYFDVWGQGTLVTVSS VL: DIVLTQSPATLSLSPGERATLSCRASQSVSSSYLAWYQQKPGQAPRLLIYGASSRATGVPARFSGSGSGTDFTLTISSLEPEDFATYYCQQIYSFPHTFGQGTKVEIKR 0.52
